Data origin, for the record: ChEMBL document CHEMBL1128703

tested on: HT-29; test: Inhibitory activity against human colon adenocarcinoma cell line LoVo/Dx.; type: functional, cell-based; details: in the assay text read “HT-29” for “LoVo/Dx”
REPORTED_PROPERTY: pIC50
Would you please state pIC50, meaning minus log10 of the concentration in mol/L, as a bare number?

What value of measured pIC50 is listed for CN(C)CCNc1nnc(N)c2c1C(=O)c1ccccc1C2=O ?
8.19

---

system: LoVo; assay: Inhibitory activity against human colon adenocarcinoma cell line LoVo.; type: functional, cell-based
Please use Yes for IC50 under 0.05 µM and No for everything else, ties included.

Strictly below 0.05 µM in IC50? Cl.O=C1c2ccccc2C(=O)c2c(NCCNCCO)nnc(NCCNCCO)c21
No

Strictly below 0.05 µM in IC50? COc1cccc2c1C(=O)c1c(O)c3c(c(O)c1C2=O)C[C@@](O)(C(=O)CO)C[C@@H]3O[C@H]1C[C@H](N)[C@H](O)[C@H](C)O1
Yes

Strictly below 0.05 µM in IC50? O=C1c2ccccc2C(=O)c2c(NCCNCCO)ccc(NCCNCCO)c21
No

Strictly below 0.05 µM in IC50? O=C1c2ccccc2C(=O)c2c(NCc3ccccc3)nnc(NCc3ccccc3)c21
No

Strictly below 0.05 µM in IC50? CCN(CC)CCNc1nnc(NCCN(CC)CC)c2c1C(=O)c1ccccc1C2=O
No

Strictly below 0.05 µM in IC50? O=C1c2c(O)ccc(O)c2C(=O)c2c(NCCNCCO)ccc(NCCNCCO)c21
Yes

Strictly below 0.05 µM in IC50? OCCCNc1nnc(NCCCO)c2cc3ccccc3cc12
No

Strictly below 0.05 µM in IC50? CN(C)CCNc1nnc(NCCN(C)C)c2c1C(=O)c1ccccc1C2=O.Cl
No

---

Assignment: determine reported IC50 for the given compounds.
system: HT-29; assay: Inhibitory activity against human tumor cell line HT-29.; format: functional, cell-based
Entry rule: numbers only, all in nM.

What value of measured IC50 is listed for Cl.O=C1c2ccccc2C(=O)c2c(NCCNCCO)nnc(NCCNCCO)c21 ?
410

What value of measured IC50 is listed for CN(C)CCNc1nnc(NCCN(C)C)c2c1C(=O)c1ccccc1C2=O.Cl ?
9.4

What value of measured IC50 is listed for O=C1c2c(O)ccc(O)c2C(=O)c2c(NCCNCCO)ccc(NCCNCCO)c21 ?
17

---

Assignment: determine reported IC50 for the given molecules.
system: MCF7; test: Inhibitory activity against human tumor cell line MCF-7 breast adenocarcinoma.; type: functional, cell-based
Entry rule: numbers only, all in nM.

What value of measured IC50 is listed for Cl.O=C1c2ccccc2C(=O)c2c(NCCNCCO)nnc(NCCNCCO)c21 ?
720

What value of measured IC50 is listed for CN(C)CCNc1nnc(NCCN(C)C)c2c1C(=O)c1ccccc1C2=O.Cl ?
0.95

What value of measured IC50 is listed for Cl.Nc1nnc(NCCNCCO)c2c1C(=O)c1ccccc1C2=O ?
47

What value of measured IC50 is listed for O=C1c2c(O)ccc(O)c2C(=O)c2c(NCCNCCO)ccc(NCCNCCO)c21 ?
20

---

Assignment: determine reported IC50 for the given compounds.
test system: HT-1080; assay: Inhibitory activity against human tumor cell line HT1080.; type: functional, cell-based
Entry rule: numbers only, all in µM.

What value of measured IC50 is listed for O=C1c2c(O)ccc(O)c2C(=O)c2c(NCCNCCO)ccc(NCCNCCO)c21 ?
0.066

What value of measured IC50 is listed for CN(C)CCNc1nnc(NCCN(C)C)c2c1C(=O)c1ccccc1C2=O.Cl ?
0.046

What value of measured IC50 is listed for Cl.O=C1c2ccccc2C(=O)c2c(NCCNCCO)nnc(NCCNCCO)c21 ?
1.3
